Where do the numbers come from? From patent US20170368082A1.

assay_method_text: 28-day study toxicokinetics of brincidofovir and CDV in plasma
Format: in vivo, Sprague-Dawley CD rats
test_conditions: both sexes, Sprague-Dawley CD, rat, in vivo, 4 mg/kg, plasma brincidofovir; Day 1; 4 mg/kg; combined male and female; Mean; read-out: Clast
value_kind: concentration at 8 h (ng/mL)
Answers are plain numbers, in ng/mL.

Q: Fill in the blank: the reported concentration at 8 h of "CCCCCCCCCCCCCCCCOCCCOP(=O)(O)CO[C@H](CO)Cn1ccc(N)nc1=O" is ____.
Ans: 2.2

====

assay_method_text: Phase 2 toxicokinetics of brincidofovir and cidofovir in plasma
Assay type: in vivo, Sprague-Dawley CD rats
test_conditions: female, Sprague-Dawley CD, rat, plasma, intravenous, 1 mg/kg, brincidofovir 1 mg/kg, Female, Day 1, 8 h; read-out: brincidofovir Mean Concentration (MC)
Experimental: Plasma samples (108) were collected 2 hours following the initiation of dosing on Day 1 and Day 7 (Group 1), or at 1, 2, 8, and 24 hours following the initiation of dosing on Day 1, and prior to administration and at 2, 8, and 24 hours following the initiation of dosing on Day 7 (Groups 2 and 3), and analyzed to determine the concentrations of brincidofovir and the metabolite, cidofovir), by LC/MS/MS. […]
value_kind: concentration at 8 h (ng/mL)
Answers are plain numbers, in ng/mL.

Q: Returns the measured concentration at 8 h for the input molecule. Input: CCCCCCCCCCCCCCCCOCCCOP(=O)(O)CO[C@H](CO)Cn1ccc(N)nc1=O [Brincidofovir]
Ans: 1.25
